TARGET SYSTEM: integrin α4β7 (Homo sapiens, UniProt P13612+P26010)
Construct: lymphoma cell strain RPMI-8866 of human B cells, known to express integrin α4β7; endogenous in cells
Sequence (P13612 34-1032): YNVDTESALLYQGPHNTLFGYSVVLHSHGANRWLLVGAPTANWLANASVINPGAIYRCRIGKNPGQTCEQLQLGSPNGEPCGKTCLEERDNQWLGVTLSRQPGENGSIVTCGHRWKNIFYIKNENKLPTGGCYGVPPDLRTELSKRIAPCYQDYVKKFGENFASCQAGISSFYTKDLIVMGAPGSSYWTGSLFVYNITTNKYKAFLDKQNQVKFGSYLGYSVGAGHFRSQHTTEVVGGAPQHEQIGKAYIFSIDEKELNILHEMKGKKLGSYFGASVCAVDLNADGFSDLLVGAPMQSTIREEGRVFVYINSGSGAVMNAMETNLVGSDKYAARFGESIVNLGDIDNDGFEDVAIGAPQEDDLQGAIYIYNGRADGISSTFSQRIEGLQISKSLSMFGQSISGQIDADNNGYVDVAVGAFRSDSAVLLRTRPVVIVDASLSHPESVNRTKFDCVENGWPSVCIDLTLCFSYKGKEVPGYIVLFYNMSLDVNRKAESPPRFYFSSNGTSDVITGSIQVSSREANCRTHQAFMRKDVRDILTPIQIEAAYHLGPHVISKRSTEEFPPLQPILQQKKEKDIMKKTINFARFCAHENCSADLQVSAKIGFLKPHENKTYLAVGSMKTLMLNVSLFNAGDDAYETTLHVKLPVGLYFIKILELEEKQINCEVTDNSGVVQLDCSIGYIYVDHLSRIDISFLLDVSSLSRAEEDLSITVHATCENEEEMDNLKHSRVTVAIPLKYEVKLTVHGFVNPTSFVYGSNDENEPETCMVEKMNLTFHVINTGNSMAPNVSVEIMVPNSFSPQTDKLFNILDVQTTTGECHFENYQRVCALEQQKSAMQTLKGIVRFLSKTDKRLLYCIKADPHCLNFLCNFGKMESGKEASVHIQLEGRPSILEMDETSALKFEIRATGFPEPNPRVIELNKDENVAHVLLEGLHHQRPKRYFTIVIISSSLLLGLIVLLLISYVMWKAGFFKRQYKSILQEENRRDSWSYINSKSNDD
Sequence (P26010 20-798): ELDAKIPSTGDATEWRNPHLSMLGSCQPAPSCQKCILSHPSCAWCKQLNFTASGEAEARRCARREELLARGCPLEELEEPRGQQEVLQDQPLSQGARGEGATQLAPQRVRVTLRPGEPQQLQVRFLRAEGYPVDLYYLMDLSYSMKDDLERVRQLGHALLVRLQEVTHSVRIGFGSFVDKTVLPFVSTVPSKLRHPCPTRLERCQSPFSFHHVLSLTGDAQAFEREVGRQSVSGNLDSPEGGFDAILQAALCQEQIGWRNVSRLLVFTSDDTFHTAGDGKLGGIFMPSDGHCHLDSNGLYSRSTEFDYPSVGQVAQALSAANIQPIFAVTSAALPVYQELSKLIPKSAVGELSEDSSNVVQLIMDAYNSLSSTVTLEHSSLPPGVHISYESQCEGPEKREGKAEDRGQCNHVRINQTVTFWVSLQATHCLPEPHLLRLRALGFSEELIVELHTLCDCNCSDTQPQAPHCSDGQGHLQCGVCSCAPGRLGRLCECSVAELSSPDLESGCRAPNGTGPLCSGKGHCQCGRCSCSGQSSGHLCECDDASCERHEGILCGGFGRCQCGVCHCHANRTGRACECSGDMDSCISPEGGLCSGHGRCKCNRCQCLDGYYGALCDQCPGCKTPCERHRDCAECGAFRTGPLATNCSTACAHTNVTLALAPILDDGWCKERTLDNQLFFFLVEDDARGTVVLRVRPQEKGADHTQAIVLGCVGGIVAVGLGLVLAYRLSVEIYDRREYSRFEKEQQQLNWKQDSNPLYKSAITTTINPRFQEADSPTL
PROTOCOL: VCAM antagonistic activity (VCAM-1/α4β7 binding assay), RPMI-8866 cells binding to VCAM-1
CONDITION LABEL: RPMI-8866 cells binding to recombinant human VCAM-1, binding buffer containing 4 mM MnCl2, 30 minutes at room temperature
Could you please report measured log10(IC50) for the items listed next?
Please interpret these as log10 of IC50 where IC50 is in nM.

What the record says about `Cn1c(=O)c(-c2ccc(C[C@H](NC(=O)c3c(Cl)cccc3Cl)C(=O)O)cc2)cc2ccccc21` : log10(IC50) is 1.95

// recorded log10(IC50) for `Cc1c(-c2ccc(C[C@H](NC(=O)c3c(Cl)cccc3Cl)C(=O)O)cc2)c(=O)n(C)c2ccccc12` : 0.61

log10(IC50) for `CCC(CC)(C(=O)N[C@@H](Cc1ccc(-c2cc3ccccc3n(C)c2=O)cc1)C(=O)O)C(=O)N1CCCC1` is 1.26

CC1CN(c2ccc(C[C@H](NC(=O)c3c(Cl)cccc3Cl)C(=O)O)cc2)C(=O)c2ccccc21 (some centres unmarked) has a reported log10(IC50) of 1.83

For record `COc1c(-c2ccc(C[C@H](NC(=O)c3c(Cl)cccc3Cl)C(=O)O)cc2)c(=O)n(C)c2ccc(Cl)cc12` the listed log10(IC50) is 1.04

Just so you know, measured log10(IC50) for `O=C(N[C@@H](Cc1ccc(N2Cc3ccccc3CC2=O)cc1)C(=O)O)c1c(Cl)cccc1Cl` came out at 1.99

response.value for `Cn1c(=O)c(-c2ccc(C[C@H](NC(=O)c3c(Cl)ccnc3Cl)C(=O)O)cc2)cc2ccccc21` (field: log10(IC50)) = 1.04

The recorded log10(IC50) for entry `Cn1c(=O)c(-c2ccc(C[C@H](NC(=O)c3c(Cl)cc(NS(C)(=O)=O)cc3Cl)C(=O)O)cc2)cc2ccccc21` equals 0.48

Measured log10(IC50) of `CCOc1c(-c2ccc(C[C@H](NC(=O)c3c(Cl)cccc3Cl)C(=O)O)cc2)c(=O)n(C)c2ccccc12` : 0.65

// `Cn1c(=O)c(-c2ccc(C[C@H](NC(=O)c3c(Cl)cccc3Cl)C(=O)O)cc2)cc2cc(S(C)(=O)=O)ccc21` : log10(IC50) value = 0.59

The value of log10(IC50) measured for the molecule `Cc1cn(-c2ccc(C[C@H](NC(=O)c3c(Cl)cccc3Cl)C(=O)O)cc2)c(=O)c2ccccc12` turned out to be 1.54

Notebook: `CCCOc1c(-c2ccc(C[C@H](NC(=O)c3c(Cl)cccc3Cl)C(=O)O)cc2)c(=O)n(C)c2ccccc12` , log10(IC50) read as 0.81

For reference, reported log10(IC50) for `CCn1c(=O)c(-c2ccc(C[C@H](NC(=O)c3c(Cl)cccc3Cl)C(=O)O)cc2)c(C)c2ccccc21` stands at 1.00

The molecule listed as `COc1c(-c2ccc(C[C@H](NC(=O)c3c(Cl)cccc3Cl)C(=O)O)cc2)c(=O)n(C)c2ccccc12` shows log10(IC50) equal to 0.54

# log10(IC50) (molecule: `Cn1c(=O)c(-c2ccc(C[C@H](NC(=O)c3c(Cl)cccc3Cl)C(=O)O)cc2)cc2cc(O)ccc21` ) is 1.32

Entry `Cn1c(=O)c(-c2ccc(C[C@H](NC(=O)c3c(Cl)cccc3Cl)C(=O)O)cc2)cc2cc([N+](C)(C)C)ccc21` , log10(IC50) reported as 0.52

Sample `O=C(N[C@@H](Cc1ccc(-n2ncc3ccccc3c2=O)cc1)C(=O)O)c1c(Cl)cccc1Cl` ; log10(IC50) observed: 0.38

The recorded log10(IC50) for entry `CCCc1c(-c2ccc(C[C@H](NC(=O)c3c(Cl)cccc3Cl)C(=O)O)cc2)c(=O)n(C)c2ccccc12` equals 0.86

Input `CCC(CC)(C(=O)N[C@@H](Cc1ccc(N2C(=O)c3cccc(C)c3C2=O)cc1)C(=O)O)C(=O)N1CCCC1` . Output log10(IC50): 1.64

log10(IC50) measured on `O=C(N[C@@H](Cc1ccc(N2C(=O)c3cccc(=O)n3C2=O)cc1)C(=O)O)c1c(Cl)cccc1Cl` = 2.18
